Tested on: FLT3
test conditions: concentration: 1 μM, replicates: in singlicate; n = 1;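 note: KINOMEscan kinase panel screen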
// %Inh lookup, one value per entry
Enter your answer as a number in %; do not include the unit.

* Cc1cc(-c2ccnc(Nc3cccc(C#N)c3)n2)cc(C)c1O | 48
* CCNC(=O)/C=C/c1n[nH]c2cc(Sc3ccccc3C(=O)NC)ccc12 | 31
* COC(=O)Nc1nc2ccc(Oc3ccc(NC(=O)Nc4cc(C(F)(F)F)ccc4F)cc3)cc2[nH]1.Cl | 99
* Cn1cc(-c2ccc3c(c2)CCN3C(=O)Cc2cc(F)cc(C(F)(F)F)c2)c2c(N)ncnc21 | 90

--- query ---
Record `CNc1nccc(-c2ccc3c(N)n[nH]c3c2)n1` , field %Inh: 50

----------
Here, each record is paired with measured %Inh data.
Test system: PIM3
test conditions: concentration: 1 μM, replicates: in singlicate; n = 1
Dear colleague, please return just the value in %, with no unit written.

Guide cases for %Inh, answers given:
* COc1cc(Nc2nccc(N3CCC(NS(=O)(=O)c4ccc(NC(C)=O)cc4)CC3)n2)cc(OC)c1OC [GSK1379825] | 0
* Cl.O=C(Nc1ccc(Oc2ccc3[nH]c(NC(=O)c4ccco4)nc3c2)cc1)Nc1cc(C(F)(F)F)ccc1F [GW683134] | 0
* COc1cccc(C2=C(Nc3cccc(O)c3)C(=O)NC2=O)c1 [SB-390771] | 0
* CCOc1nccc(-c2c(-c3ccc(F)cc3)ncn2C2CCNCC2)n1 [SB-249175] | 5
* Cc1cc(-c2ccnc(Nc3cccc(C#N)c3)n2)cc(C)c1O [GSK1440913] | 0
* COc1cccc(NC(=O)NCCNc2ccnc(Nc3ccc(F)cc3)n2)c1 [GSK1379879] | 0
* O=C(Nc1n[nH]c2nc(-c3ccccc3)ccc12)C1CC1 [SB-708999] | 0
* CCn1c(-c2nonc2N)nc2c(-c3ccccc3)ncc(OCCCN)c21.O=C(O)C(F)(F)F.O=C(O)C(F)(F)F [GSK260205] | 44
* NCCC(NC(=O)c1cc(Br)c(-c2ccnc3[nH]ccc23)s1)c1ccccc1.O=C(O)C(F)(F)F.O=C(O)C(F)(F)F (stereo not drawn) [GSK1307810] | 45
* Nc1cccc(-c2ccc3c(N)n[nH]c3c2)c1 [GSK2193613] | 0

Nc1ncc(-c2cn[nH]c2)c2scc(-c3ccc4c(c3)CCN4C(=O)Cc3ccccc3)c12 [GSK2593067] yielded %Inh of 0

# %Inh (compound: COc1cccc2c(-c3ccncc3)c(-c3ccc(F)cc3)nn12 [GW468513] ) is 0

----------
Test system: INSR
test conditions: concentration: 1 μM, replicates: in singlicate; n = 1
%Inh values, listed per item
Kindly provide the numeric value in % only, without the unit symbol.

Here is how some compounds turned out for %Inh.
* CSc1ccc(NC2=C(c3ccc(Cl)cc3)C(=O)NC2=O)cc1 [SB-317658] | 4
* O=C(Nc1n[nH]c2nc(-c3cccc(O)c3)ccc12)C1CC1 [SB-711805] | 0
* COc1cccc(NC(=O)NCCNc2ccnc(Nc3ccc(F)cc3)n2)c1 [GSK1379879] | 0
* Cc1ccc(O)cc1Nc1ccnc2ccc(C(C)(C)C)cc12 [GW856805] | 16

Here c1ccc(Oc2ccc(Nc3ccnc4cc(-c5ccc(CN6CCCCC6)o5)ccc34)cc2)nc1 [GW567143] was tested on INSR, and its %Inh came to 10

Entry CN(c1ccc2c(c1)nc(NCc1ccccc1)n2C)c1ccnc(Nc2ccc(CS(C)(=O)=O)cc2)n1.Cl [GW811603] ; assay system INSR; %Inh recorded at 10

Noted %Inh for COC(=O)Nc1nc2cc(Oc3ccc(NC(=O)Nc4cccc(SC)c4)cc3)ccc2[nH]1.Cl [GW697999] , tested on INSR: 0

Tested on INSR: COc1ccc(NC(=O)c2ccoc2)cc1-c1ccc(C(=O)NCC2CC2)cc1 [GW810437] . Observed %Inh: 10

Result for COc1cccc(CC(=O)N2CCc3cc(-c4cn(C)c5ncnc(N)c45)ccc32)c1 [GSK2608899] , tested on INSR, %Inh: 9

----------
Tested on: ACVR1B
test conditions: concentration: 1 μM, replicates: in singlicate; n = 1
observation type: %Inh
Answer as a quantity: numeral, then unit.

Examples with their reported %Inh follow.
* COC(=O)Nc1nc2ccc(Oc3ccc(NC(=O)Nc4cc(C(F)(F)F)ccc4F)cc3)cc2[nH]1.Cl | 0%
* Nc1ncc(-c2ccc3nccc(-c4ccncc4)c3c2)cc1S(=O)(=O)N1CCCCC1 | 0%

The compound CC(C)NCC(Cc1ccccc1)NC(=O)c1cc(Br)c(-c2ccnc3[nH]ccc23)s1.Cl.Cl (centres unmarked) on ACVR1B: %Inh was 0%

// compound Cc1ccc(-c2ccc3occ(-c4ccc(S(C)=O)cc4)c3c2)nn1 (centres unmarked) , assay ACVR1B, %Inh value: 7%

For the compound `O=C(Nc1c(F)cccc1F)c1cc(C(=O)c2ccccc2F)c[nH]1` , the measured %Inh on ACVR1B was 20%

The compound Cl.Cl.NC(CNC(=O)c1cc(Br)c(-c2ccnc3[nH]ccc23)s1)c1ccccc1 (centres unmarked) on ACVR1B: %Inh was 0%

%Inh value, target or system ACVR1B, for `COc1ccc(C)c(Nc2ccnc(Nc3ccc(-c4cnc[nH]4)cc3)n2)c1.Cl` : 74%

Observed %Inh on ACVR1B, entry `CNc1nccc(-c2ccc3c(N)n[nH]c3c2)n1` , equals 10%

----------
Test system: TXK
test conditions: concentration: 1 μM, replicates: in singlicate; n = 1
Each entry falls in a class defined on %Inh; the bands are low bracket (below 7%), middle bracket (7% to below 40%), high bracket (40% or more)

* Nc1cccc(-c2ccc3c(N)n[nH]c3c2)c1 [GSK2193613] | low bracket
* CC(C)NCC(Cc1ccccc1)NC(=O)c1cc(Br)c(-c2ccnc3[nH]ccc23)s1.Cl.Cl (centres unmarked) [GSK1383281] | high bracket
* O=C(Nc1n[nH]c2nc(-c3cccc(O)c3)ccc12)C1CC1 [SB-711805] | low bracket

Kindly review the next molecule as well.
input: Just checking, what class would you give COc1cc(Nc2nccc(N3CCC(NS(=O)(=O)c4ccc(NC(C)=O)cc4)CC3)n2)cc(OC)c1OC [GSK1379825] here?
output: high bracket

----------
System: SBK1
test conditions: concentration: 1 μM, replicates: in singlicate; n = 1
# %Inh values compiled below
Note: unit % is implicit; provide only the numeric part.

Reference set (3 entries):
• Cc1cc(-c2c(-c3ccc(F)cc3)ncn2CCCN2CCOCC2)nc(N)n1 [SB-222517] = 18
• COc1cccc2c(-c3ccncc3)c(-c3ccc(F)cc3)nn12 [GW468513] = 0
• CCNc1nccc(-c2c(-c3ccc(F)cc3)ncn2C2CCN(C)CC2)n1 = 0

response.value for COC(=O)Nc1nc2ccc(Oc3ccc(NC(=O)Nc4cc(C(F)(F)F)ccc4F)cc3)cc2[nH]1.Cl [GW654607] (field: %Inh) = 17

Entry COc1cccc(C2=C(Nc3cccc(O)c3)C(=O)NC2=O)c1 [SB-390771] , %Inh reported as 4

----------
System: MAP3K3
test conditions: concentration: 1 μM, replicates: in singlicate; n = 1
Measured %Inh, listed per entry.

• CN(C)CCOc1ccc(-c2cc(-c3ccc(Cl)c(O)c3)c(-c3ccncc3)[nH]2)cc1.Cl.Cl = 0%
• Cc1ccc(NC(=O)c2cccc(N3CCCCC3)c2)cc1-c1ccc(C(=O)NCC2CC2)cc1 = 0%
• COC(=O)Nc1nc2cc(Oc3ccc(NC(=O)Nc4cccc(SC)c4)cc3)ccc2[nH]1.Cl = 0%

Quick note, %Inh for `O=C(Nc1n[nH]c2nc(-c3ccccc3)ccc12)C1CC1` landed at 0%

Per the record, `COC(=O)Nc1nc2ccc(Oc3ccc(NC(=O)Nc4cc(C(F)(F)F)ccc4F)cc3)cc2[nH]1.Cl` has %Inh of 0%

%Inh measured on `COc1cccc(C2=C(Nc3cccc(O)c3)C(=O)NC2=O)c1` = 0%

Lab book: %Inh of `CCn1cnc2c(NCc3ccccc3)ncnc21` noted as 0%

For record `COc1cccc(NC(=O)NCCNc2ccnc(Nc3ccc(F)cc3)n2)c1` the listed %Inh is 0%

Please fill in: %Inh reported for `COc1cccc(-c2nc(-c3ccccc3)[nH]c2-c2ccncc2)c1` = 0%

The compound identified as `CN(C)c1ncnc2nc[nH]c12` registered its %Inh at 0%

# %Inh of Cc1ccc(-c2ccc3occ(-c4ccc(S(C)=O)cc4)c3c2)nn1 (stereo not drawn) = 0%

The compound listed as `CC(C)c1nc(-c2cccc(NS(=O)(=O)c3c(F)cccc3F)c2)c(-c2ccnc(Nc3ccc(N4CCOCC4)nc3)n2)s1.Cl` has a reported %Inh of 71%

The recorded %Inh for `Cc1ccc(NC(=O)c2ccc(Cl)c(Cl)c2)cc1-c1ccc(C(=O)Nc2ccncc2)cc1` is 0%

Sample `COc1cc(Nc2nccc(N3CCC(NS(=O)(=O)c4ccc(NC(C)=O)cc4)CC3)n2)cc(OC)c1OC` ; %Inh observed: 0%

For reference, reported %Inh for `CCn1c(-c2nonc2N)nc2c(-c3ccccc3)ncc(OCCCN)c21.O=C(O)C(F)(F)F.O=C(O)C(F)(F)F` stands at 97.7%

So, `O=C(O)C(F)(F)F.O=c1[nH]ccc2nc(N[C@@H]3CCNC3)nc(Nc3ccc4c(c3)S(=O)(=O)CC4)c12` ? Its %Inh was 76%

Form field %Inh, entry Cl.Cl.NCC(NC(=O)c1cc(-c2cccnc2)c(-c2ccnc3[nH]ccc23)s1)c1ccccc1 (stereo not drawn) : 0%

%Inh reading for `Cc1cccc(Nc2nc(NCCN)ncc2C(N)=O)c1` : 31%

The reported value for `CS(=O)(=O)c1cccc(CNc2nc(Nc3ccc4c(c3)CCC(=O)N4)ncc2C(F)(F)F)c1` in terms of %Inh is 46%

Consider `Cl.O=C(Nc1ccc(Oc2ccc3[nH]c(NC(=O)c4ccco4)nc3c2)cc1)Nc1cc(C(F)(F)F)ccc1F` . Its measured %Inh is 0%

The compound listed as `CCOc1nccc(-c2c(-c3ccc(F)cc3)ncn2C2CCNCC2)n1` shows %Inh equal to 7%

Just so you know, measured %Inh for `Cc1cc(-c2ccnc(Nc3cccc(C#N)c3)n2)cc(C)c1O` came out at 1%

Memo: `O=C(Nc1c(F)cccc1F)c1cc(C(=O)c2ccccc2F)c[nH]1` , reported %Inh: 0%

%Inh reported for this compound `CCNC(=O)/C=C/c1n[nH]c2cc(Sc3ccccc3C(=O)NC)ccc12` : 30%

Sure, the documented %Inh for `Cc1ccc(O)cc1Nc1ccnc2ccc(C(C)(C)C)cc12` is 31%

Note to self: %Inh recorded for `CN(c1ccc(F)c(NC(=O)c2cccc(OC(C)(C)C#N)c2Cl)c1)c1ccc2nc(NC(=O)C3CC3)sc2n1` was 15%

Field %Inh (entry `CCNc1nccc(-c2c(-c3ccc(F)cc3)ncn2C2CCN(C)CC2)n1` ) reads 0%

Summary for this compound, `CN1CCN(Cc2ccc(NC(=O)Nc3ccc(N(C)c4ccnc(Nc5ccc(CS(C)(=O)=O)cc5)n4)cc3)cc2)CC1.Cl` : %Inh is 61%

So, `COc1cc(Nc2ccnc3cc(-c4ccncc4)ccc23)cc(OC)c1OC.Cl` ? Its %Inh was 30%
